Field: EC50. Provide a value for each of the binders that follow.
# target_or_system: CD3 on 293T-CD3 cells
# Sequence (chain, as listed by the source): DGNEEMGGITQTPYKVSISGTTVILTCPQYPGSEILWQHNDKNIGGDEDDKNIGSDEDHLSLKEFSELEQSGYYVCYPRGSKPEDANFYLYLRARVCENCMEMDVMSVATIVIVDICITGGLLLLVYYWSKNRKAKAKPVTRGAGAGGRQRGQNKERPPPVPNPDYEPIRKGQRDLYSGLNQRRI
# procedure_text: flow cytometry on 293T-CD3 cells
Give just the number in nM; leave the unit off.

Query CD3 Ab08 (antibody, human IgG1, kappa, V domains shown, also called humanized anti-CD3 monoclonal antibody) VH: EVQLVESGGGLVQPGGSLRLSCAASGFTFNTYAMNWVRQAPGKGLEWVARIRSKYNNYATYYADSVKDRFTISRDDSKNILYLQMNSLKTEDTAVYYCVRHGNFGNSYVSWFAYWGQGTLVTVSA VL: QAVVTQEPSLTVSPGGTVTLTCRSSTGAVTTSNYANWVQQKPGQAPRGLIGGTNKRAPWTPARFSGSLLGGKAALTITGAQTEDEAEYYCALWYSNLWVFGGGTKLTVLR yields EC50 of 4.24

Query CD3 Ab04 (antibody, human IgG1, kappa, V domains shown, also called humanized anti-CD3 monoclonal antibody) VH: EVQLVESGGGLVQPGGSLRLSCAASGFTFNTYAMNWVRQAPGKGLEWVARIRSKYNNYATYYADSVKDRFTISRDDSKNSLYLQMNSLKTEDTAVYYCVRHGNFGNSYVSWFAYWGQGTLVTVSA VL: QAVVTQEPSLTVSPGGTVTLTCRSSTGAVTTSNYANWVQQKPGQAPRGLIGGTNKRAPWVPARFSGSLLGDKAALTLSGAQTEDEAEYYCALWYSNLWVFGGGTKLTVLR yields EC50 of 5.23

Query CD3 Ab02 (antibody, human IgG1, kappa, V domains shown, also called humanized anti-CD3 monoclonal antibody) VH: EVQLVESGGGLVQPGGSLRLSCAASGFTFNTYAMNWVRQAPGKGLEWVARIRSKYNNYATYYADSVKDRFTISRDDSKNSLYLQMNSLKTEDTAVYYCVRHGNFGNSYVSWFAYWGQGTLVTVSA VL: QAVVTQEPSLTVSPGGTVTLTCRSSTGAVTTSNYANWVQQKPGQAPRGLIGGTNKRAPWTPARFSGSLLGGKAALTLSGAQTEDEAEYYCALWYSNLWVFGGGTKLTVLR yields EC50 of 12.3

Query CD3 Ab10 (antibody, human IgG1, kappa, V domains shown, also called humanized anti-CD3 monoclonal antibody) VH: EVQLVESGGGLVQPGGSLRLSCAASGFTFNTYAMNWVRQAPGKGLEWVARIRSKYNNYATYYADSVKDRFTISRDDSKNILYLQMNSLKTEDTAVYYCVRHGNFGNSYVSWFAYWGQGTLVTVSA VL: QAVVTQEPSLTVSPGGTVTLTCRSSTGAVTTSNYANWVQEKPGQAPRGLIGGTNKRAPWVPARFSGSLLGDKAALTLSGAQTEDEAEYYCALWYSNLWVFGGGTKLTVLR yields EC50 of 2.44

Query CD3 Ab03 (antibody, human IgG1, kappa, V domains shown, also called humanized anti-CD3 monoclonal antibody) VH: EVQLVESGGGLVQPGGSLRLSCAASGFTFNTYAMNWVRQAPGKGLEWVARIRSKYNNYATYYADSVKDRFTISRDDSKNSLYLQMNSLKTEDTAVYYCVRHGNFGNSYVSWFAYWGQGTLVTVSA VL: QAVVTQEPSLTVSPGGTVTLTCRSSTGAVTTSNYANWVQQKPGQAPRGLIGGTNKRAPWTPARFSGSLLGGKAALTITGAQTEDEAEYYCALWYSNLWVFGGGTKLTVLR yields EC50 of 10.1
